# test_description: Drug recovery in C57BL/6 mouse feces at 5 mg/kg, po measured after 24 hrs by LC-MS/MS analysis
# Assay type: ADME, organism-based
# condition_set: read-out: Drug recovery
Answer each item with its documented dose excreted at 24 h.
Numbers only, in %.

[ask] For the molecule `CO[C@@H]1C[C@@H]2C[C@H](O)CC[C@]2(C)[C@H]2CC[C@]3(C)[C@@H]([C@H](C)CCc4nnc(C)o4)CC[C@H]3[C@H]12` , what dose excreted at 24 h is on record?
[reply] 7.1

[ask] For the molecule `CO[C@@H]1CC[C@@]2(C)[C@@H](C1)C[C@@H](O)[C@@H]1[C@@H]2CC[C@]2(C)[C@@H]([C@H](C)CCc3nnn[n-]3)CC[C@@H]12.[Na+]` , what dose excreted at 24 h is on record?
[reply] 7.7

[ask] For the molecule `CO[C@@H]1CC[C@@]2(C)[C@@H](C1)C[C@@H](OS(=O)(=O)[O-])[C@@H]1[C@@H]2CC[C@]2(C)[C@@H]([C@H](C)CCc3nnn[n-]3)CC[C@@H]12.[Na+].[Na+]` , what dose excreted at 24 h is on record?
[reply] 89.1

[ask] For the molecule `CO[C@@H]1CC[C@@]2(C)[C@@H](C1)C[C@H](O)[C@@H]1[C@@H]2CC[C@]2(C)[C@@H]([C@H](C)CCC(=O)N3CCCC3)CC[C@@H]12` , what dose excreted at 24 h is on record?
[reply] 3

[ask] For the molecule `CO[C@@H]1C[C@@H]2C[C@H](O)CC[C@]2(C)[C@H]2CC[C@]3(C)[C@@H]([C@H](C)CCC(=O)NC[C@H](O)[C@@H](O)[C@H](O)[C@H](O)CO)CC[C@H]3[C@H]12` , what dose excreted at 24 h is on record?
[reply] 11.7

[ask] For the molecule `CO[C@@H]1CC[C@@]2(C)[C@@H](C1)C[C@H](OS(=O)(=O)[O-])[C@@H]1[C@@H]2CC[C@]2(C)[C@@H]([C@H](C)CCC(=O)N3CCCC3)CC[C@@H]12.[Na+]` , what dose excreted at 24 h is on record?
[reply] 29.1

[ask] For the molecule `CO[C@@H]1C[C@@H]2C[C@H](O)CC[C@]2(C)[C@H]2CC[C@]3(C)[C@@H]([C@H](C)CCC(=O)N(C)C[C@H](O)[C@@H](O)[C@H](O)[C@H](O)CO)CC[C@H]3[C@H]12` , what dose excreted at 24 h is on record?
[reply] 39.7

Consider now this further molecule.
[ask] For the molecule `Cc1nnc(CC[C@@H](C)[C@H]2CC[C@H]3[C@@H]4[C@H](O)C[C@@H]5C[C@H](O)CC[C@]5(C)[C@H]4CC[C@]23C)o1` , what dose excreted at 24 h is on record?
[reply] 0.5
